molecular target: MAP/microtubule affinity-regulating kinase 3 (Homo sapiens); experiment: Inhibition of MARK3 in human HeLa cells lysate pre incubated for 15 mins followed by ATP acyl phosphate probe addition and measured after 10 mins by LC-MS/MS analysis; format: subcellular
Sequence (P27448 whole entry): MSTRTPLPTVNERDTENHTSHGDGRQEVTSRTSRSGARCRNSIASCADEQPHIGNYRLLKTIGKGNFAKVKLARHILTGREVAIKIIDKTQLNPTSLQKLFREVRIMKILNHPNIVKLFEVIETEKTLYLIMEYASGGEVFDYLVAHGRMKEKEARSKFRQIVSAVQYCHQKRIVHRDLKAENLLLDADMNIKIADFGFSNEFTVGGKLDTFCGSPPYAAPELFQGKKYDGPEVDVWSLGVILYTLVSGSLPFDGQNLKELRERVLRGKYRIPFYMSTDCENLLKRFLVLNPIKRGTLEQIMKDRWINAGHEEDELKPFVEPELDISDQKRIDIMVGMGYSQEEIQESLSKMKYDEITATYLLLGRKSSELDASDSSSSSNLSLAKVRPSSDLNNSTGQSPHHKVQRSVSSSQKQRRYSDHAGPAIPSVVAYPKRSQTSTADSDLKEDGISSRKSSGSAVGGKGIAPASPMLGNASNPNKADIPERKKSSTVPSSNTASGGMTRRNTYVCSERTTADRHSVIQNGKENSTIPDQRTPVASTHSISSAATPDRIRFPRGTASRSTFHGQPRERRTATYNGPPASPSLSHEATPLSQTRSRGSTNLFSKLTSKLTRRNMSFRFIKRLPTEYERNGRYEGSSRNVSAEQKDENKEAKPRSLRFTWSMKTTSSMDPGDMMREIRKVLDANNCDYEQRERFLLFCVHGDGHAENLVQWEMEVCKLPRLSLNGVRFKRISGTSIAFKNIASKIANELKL
MEASURED_ENDPOINT: IC50

In plain terms, `CCOc1cc(N2CCC(O)CC2)ccc1Nc1ncc2c(n1)N(C)c1ccccc1C(=O)N2C` has a documented IC50 of > 50 µM

====

Target: Phosphorylase b kinase gamma catalytic chain, liver/testis isoform (Homo sapiens, UniProt P15735)
Sequence (P15735 whole entry): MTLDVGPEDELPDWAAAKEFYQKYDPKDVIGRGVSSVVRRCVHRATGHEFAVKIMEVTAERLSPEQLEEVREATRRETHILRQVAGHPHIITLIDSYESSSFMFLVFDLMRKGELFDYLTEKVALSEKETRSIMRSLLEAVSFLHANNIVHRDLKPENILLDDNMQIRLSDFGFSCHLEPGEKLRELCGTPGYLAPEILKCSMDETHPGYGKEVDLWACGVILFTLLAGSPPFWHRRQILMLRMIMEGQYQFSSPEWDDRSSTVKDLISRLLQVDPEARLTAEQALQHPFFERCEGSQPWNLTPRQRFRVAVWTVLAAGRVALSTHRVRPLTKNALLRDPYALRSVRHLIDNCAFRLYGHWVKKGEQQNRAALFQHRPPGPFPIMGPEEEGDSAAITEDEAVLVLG
Assay: Inhibition of PHKg2 in human HeLa cells lysate pre incubated for 15 mins followed by ADP acyl phosphate probe addition and measured after 10 mins by LC-MS/MS analysis
Format: subcellular
pIC50: −log10 of the molar value.
MEASURED_ENDPOINT: pIC50

In plain terms, `CCOc1cc(N2CCC(O)CC2)ccc1Nc1ncc2c(n1)N(C)c1ccccc1C(=O)N2C` has a documented pIC50 of < 4.30

====

biological target: Serine/threonine-protein kinase Sgk3 (Homo sapiens); experiment: Inhibition of SGK3 K2 site in human HeLa cells lysate pre incubated for 15 mins followed by ATP acyl phosphate probe addition and measured after 10 mins by LC-MS/MS analysis; format: subcellular
Sequence (Q96BR1 whole entry): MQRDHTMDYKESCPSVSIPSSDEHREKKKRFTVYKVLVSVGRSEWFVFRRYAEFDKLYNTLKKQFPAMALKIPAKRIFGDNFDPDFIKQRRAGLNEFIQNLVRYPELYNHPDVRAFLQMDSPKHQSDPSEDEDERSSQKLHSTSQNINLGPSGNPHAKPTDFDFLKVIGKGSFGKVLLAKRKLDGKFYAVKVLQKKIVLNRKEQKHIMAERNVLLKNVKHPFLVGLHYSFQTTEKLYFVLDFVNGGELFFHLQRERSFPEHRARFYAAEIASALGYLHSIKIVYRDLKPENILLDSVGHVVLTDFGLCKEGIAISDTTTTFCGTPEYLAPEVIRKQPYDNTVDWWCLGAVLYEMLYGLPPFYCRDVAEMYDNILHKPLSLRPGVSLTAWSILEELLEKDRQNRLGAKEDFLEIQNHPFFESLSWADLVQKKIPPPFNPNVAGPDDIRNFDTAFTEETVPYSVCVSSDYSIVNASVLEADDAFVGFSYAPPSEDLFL
MEASURED_ENDPOINT: IC50

In plain terms, `CCOc1cc(N2CCC(O)CC2)ccc1Nc1ncc2c(n1)N(C)c1ccccc1C(=O)N2C` has a documented IC50 of > 50 µM

====

Target: Serine/threonine-protein kinase Nek8 (Homo sapiens, UniProt Q86SG6)
Sequence (Q86SG6 whole entry): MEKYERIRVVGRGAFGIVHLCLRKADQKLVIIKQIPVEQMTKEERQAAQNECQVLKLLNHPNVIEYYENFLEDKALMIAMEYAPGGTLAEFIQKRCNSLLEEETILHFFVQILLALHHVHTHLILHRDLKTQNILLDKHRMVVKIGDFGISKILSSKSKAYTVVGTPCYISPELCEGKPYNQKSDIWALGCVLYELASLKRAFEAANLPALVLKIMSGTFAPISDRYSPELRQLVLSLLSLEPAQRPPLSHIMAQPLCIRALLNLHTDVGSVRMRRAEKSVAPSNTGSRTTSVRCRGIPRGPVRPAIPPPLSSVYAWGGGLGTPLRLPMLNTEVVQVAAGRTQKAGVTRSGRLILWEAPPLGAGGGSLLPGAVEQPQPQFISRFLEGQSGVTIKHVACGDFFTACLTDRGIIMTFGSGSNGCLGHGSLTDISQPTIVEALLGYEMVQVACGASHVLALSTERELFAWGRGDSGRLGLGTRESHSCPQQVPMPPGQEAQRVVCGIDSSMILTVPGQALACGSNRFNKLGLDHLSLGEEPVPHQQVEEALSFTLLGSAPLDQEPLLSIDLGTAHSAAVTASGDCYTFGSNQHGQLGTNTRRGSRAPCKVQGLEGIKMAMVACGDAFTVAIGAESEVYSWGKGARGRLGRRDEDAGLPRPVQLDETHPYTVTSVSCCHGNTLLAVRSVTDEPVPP
Experiment: Inhibition of NEK8 in human HeLa cells lysate pre incubated for 15 mins followed by ADP acyl phosphate probe addition and measured after 10 mins by LC-MS/MS analysis
pIC50: −log10 of the molar value.
MEASURED_ENDPOINT: pIC50

In plain terms, `CCOc1cc(N2CCC(O)CC2)ccc1Nc1ncc2c(n1)N(C)c1ccccc1C(=O)N2C` has a documented pIC50 of < 4.30

====

assay: Plasma concentration in C57Bl/6 mouse at 50 mg/kg, ip administered for 8 day and measured 8 hr post last dose by LC-MS/MS analysis; assay type: ADME, organism-based
MEASURED_ENDPOINT: concentration at 192 h (µM)
Give your result in µM as a bare value.

In plain terms, `CCOc1cc(N2CCC(O)CC2)ccc1Nc1ncc2c(n1)N(C)c1ccccc1C(=O)N2C` has a documented concentration at 192 h of 12.8

====

molecular target: 3-phosphoinositide-dependent protein kinase 1 (Homo sapiens); test: Inhibition of PDK1 in human HeLa cells lysate pre incubated for 15 mins followed by ADP acyl phosphate probe addition and measured after 10 mins by LC-MS/MS analysis
Sequence (O15530 whole entry): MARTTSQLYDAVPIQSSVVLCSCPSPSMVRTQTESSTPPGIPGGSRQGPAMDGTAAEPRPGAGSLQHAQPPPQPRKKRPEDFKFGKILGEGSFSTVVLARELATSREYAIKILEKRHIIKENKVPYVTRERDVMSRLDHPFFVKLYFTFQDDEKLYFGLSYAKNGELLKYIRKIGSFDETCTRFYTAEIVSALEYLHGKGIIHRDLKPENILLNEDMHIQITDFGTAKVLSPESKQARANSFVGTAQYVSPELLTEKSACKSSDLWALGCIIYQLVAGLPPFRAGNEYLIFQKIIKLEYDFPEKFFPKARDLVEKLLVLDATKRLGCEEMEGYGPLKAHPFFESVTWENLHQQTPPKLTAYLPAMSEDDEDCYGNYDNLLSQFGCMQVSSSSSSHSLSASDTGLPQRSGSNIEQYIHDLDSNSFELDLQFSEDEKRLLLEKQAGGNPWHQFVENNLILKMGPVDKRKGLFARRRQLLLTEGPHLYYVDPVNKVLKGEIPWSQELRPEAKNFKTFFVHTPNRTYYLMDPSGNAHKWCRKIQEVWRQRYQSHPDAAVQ
MEASURED_ENDPOINT: IC50

In plain terms, `CCOc1cc(N2CCC(O)CC2)ccc1Nc1ncc2c(n1)N(C)c1ccccc1C(=O)N2C` has a documented IC50 of > 50 µM

====

molecular target: Cyclin-dependent kinase 9 (Homo sapiens, UniProt P50750); experiment: Inhibition of CDK9 in human HeLa cells lysate pre incubated for 15 mins followed by ADP acyl phosphate probe addition and measured after 10 mins by LC-MS/MS analysis; assay type: subcellular
Sequence (P50750 whole entry): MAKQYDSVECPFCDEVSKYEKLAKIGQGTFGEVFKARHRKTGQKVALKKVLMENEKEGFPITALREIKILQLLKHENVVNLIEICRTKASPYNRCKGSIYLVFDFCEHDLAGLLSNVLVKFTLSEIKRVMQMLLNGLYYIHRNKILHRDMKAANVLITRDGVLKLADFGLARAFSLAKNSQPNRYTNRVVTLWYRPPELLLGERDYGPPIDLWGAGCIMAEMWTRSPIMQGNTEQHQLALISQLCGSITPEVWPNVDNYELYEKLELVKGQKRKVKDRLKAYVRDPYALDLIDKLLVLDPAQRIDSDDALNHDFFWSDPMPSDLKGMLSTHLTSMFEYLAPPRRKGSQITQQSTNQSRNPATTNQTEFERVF
MEASURED_ENDPOINT: IC50

In plain terms, `CCOc1cc(N2CCC(O)CC2)ccc1Nc1ncc2c(n1)N(C)c1ccccc1C(=O)N2C` has a documented IC50 of > 50 µM

====

assay: MRT in Sprague-Dawley rat at 1 mg/kg, iv measured up to 8 hrs by LC-MS/MS analysis; type: ADME, organism-based; details: in vivo
MEASURED_ENDPOINT: MRT

In plain terms, `CCOc1cc(N2CCC(O)CC2)ccc1Nc1ncc2c(n1)N(C)c1ccccc1C(=O)N2C` has a documented MRT of 2.2 h

====

molecular target: Mixed lineage kinase domain-like protein (Homo sapiens, UniProt Q8NB16); assay: Inhibition of MLKL in human HeLa cells lysate pre incubated for 15 mins followed by ADP acyl phosphate probe addition and measured after 10 mins by LC-MS/MS analysis; format: subcellular
pIC50: −log10 of the molar value.
MEASURED_ENDPOINT: pIC50

In plain terms, `CCOc1cc(N2CCC(O)CC2)ccc1Nc1ncc2c(n1)N(C)c1ccccc1C(=O)N2C` has a documented pIC50 of < 4.30

====

molecular target: Serine/threonine-protein kinase 16 (Homo sapiens, UniProt O75716); test: Inhibition of MPSK1 in human HeLa cells lysate pre incubated for 15 mins followed by ATP acyl phosphate probe addition and measured after 10 mins by LC-MS/MS analysis
Sequence (O75716 whole entry): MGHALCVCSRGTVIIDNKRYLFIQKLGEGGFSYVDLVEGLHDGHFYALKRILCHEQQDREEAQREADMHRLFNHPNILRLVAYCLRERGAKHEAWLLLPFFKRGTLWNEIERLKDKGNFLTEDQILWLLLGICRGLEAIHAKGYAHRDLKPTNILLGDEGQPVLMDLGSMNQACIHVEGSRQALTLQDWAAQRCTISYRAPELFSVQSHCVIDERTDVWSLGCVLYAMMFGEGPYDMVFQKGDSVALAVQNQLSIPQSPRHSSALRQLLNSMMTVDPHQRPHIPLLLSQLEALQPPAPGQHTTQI
pIC50: −log10 of the molar value.
MEASURED_ENDPOINT: pIC50

In plain terms, `CCOc1cc(N2CCC(O)CC2)ccc1Nc1ncc2c(n1)N(C)c1ccccc1C(=O)N2C` has a documented pIC50 of < 4.30

====

Molecular target: Mixed lineage kinase domain-like protein (Homo sapiens)
Sequence (Q8NB16 whole entry): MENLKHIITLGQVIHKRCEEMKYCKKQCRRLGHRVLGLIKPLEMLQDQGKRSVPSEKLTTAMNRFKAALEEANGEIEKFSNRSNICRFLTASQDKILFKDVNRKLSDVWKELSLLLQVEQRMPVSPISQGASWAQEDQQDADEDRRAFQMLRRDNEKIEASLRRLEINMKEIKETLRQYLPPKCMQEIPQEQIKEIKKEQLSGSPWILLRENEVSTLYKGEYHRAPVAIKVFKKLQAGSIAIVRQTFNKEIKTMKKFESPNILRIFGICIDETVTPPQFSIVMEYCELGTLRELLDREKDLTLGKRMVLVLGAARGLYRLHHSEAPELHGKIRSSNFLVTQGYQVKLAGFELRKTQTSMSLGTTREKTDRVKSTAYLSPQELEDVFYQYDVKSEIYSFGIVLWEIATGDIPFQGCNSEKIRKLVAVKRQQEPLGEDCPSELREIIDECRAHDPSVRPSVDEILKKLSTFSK
Test: Inhibition of MLKL in human HeLa cells lysate pre incubated for 15 mins followed by ATP acyl phosphate probe addition and measured after 10 mins by LC-MS/MS analysis
Type: subcellular
MEASURED_ENDPOINT: IC50

In plain terms, `CCOc1cc(N2CCC(O)CC2)ccc1Nc1ncc2c(n1)N(C)c1ccccc1C(=O)N2C` has a documented IC50 of > 50 µM

====

Target: EKC/KEOPS complex subunit TP53RK (Homo sapiens, UniProt Q96S44)
Sequence (Q96S44 whole entry): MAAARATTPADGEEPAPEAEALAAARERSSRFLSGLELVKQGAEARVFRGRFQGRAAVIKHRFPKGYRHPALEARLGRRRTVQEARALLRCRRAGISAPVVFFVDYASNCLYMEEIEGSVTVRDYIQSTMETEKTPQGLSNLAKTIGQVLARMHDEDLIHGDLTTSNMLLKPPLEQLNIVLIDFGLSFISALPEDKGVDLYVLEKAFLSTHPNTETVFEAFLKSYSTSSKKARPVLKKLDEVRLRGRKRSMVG
Assay: Inhibition of PRPK in human HeLa cells lysate pre incubated for 15 mins followed by ATP acyl phosphate probe addition and measured after 10 mins by LC-MS/MS analysis
Type: subcellular
MEASURED_ENDPOINT: IC50

In plain terms, `CCOc1cc(N2CCC(O)CC2)ccc1Nc1ncc2c(n1)N(C)c1ccccc1C(=O)N2C` has a documented IC50 of > 50 µM
